Target: WEE1 (Homo sapiens, UniProt P30291)
Construct: purchased Thermo Fisher PR7373A
Sequence (P30291 whole entry): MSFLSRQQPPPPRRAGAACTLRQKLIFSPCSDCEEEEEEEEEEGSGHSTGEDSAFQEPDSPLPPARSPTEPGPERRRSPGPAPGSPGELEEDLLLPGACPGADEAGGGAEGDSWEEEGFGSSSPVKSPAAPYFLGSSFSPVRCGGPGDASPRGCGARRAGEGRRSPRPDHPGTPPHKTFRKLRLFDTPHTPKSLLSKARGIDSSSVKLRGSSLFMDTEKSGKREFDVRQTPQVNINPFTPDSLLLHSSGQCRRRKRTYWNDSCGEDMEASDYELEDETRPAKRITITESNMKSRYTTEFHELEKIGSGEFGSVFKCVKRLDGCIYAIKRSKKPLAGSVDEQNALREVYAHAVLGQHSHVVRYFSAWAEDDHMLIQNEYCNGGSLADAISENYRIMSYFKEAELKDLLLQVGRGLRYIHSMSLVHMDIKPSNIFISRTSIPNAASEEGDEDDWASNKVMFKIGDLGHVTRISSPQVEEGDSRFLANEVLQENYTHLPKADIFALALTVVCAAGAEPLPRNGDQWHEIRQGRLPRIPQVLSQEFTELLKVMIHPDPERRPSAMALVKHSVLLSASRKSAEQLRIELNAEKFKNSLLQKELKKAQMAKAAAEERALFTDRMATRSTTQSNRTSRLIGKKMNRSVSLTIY
Experiment: Selectivity versus WEE1 assay (ADP-Glo enzymatic assay)
Type: biochemical
Settings: fold difference in selectivity for PKMYT1 over WEE1; banded; ">N" = at least in this band but could be higher
attributeMeasured: PKMYT1 vs. WEE1 selectivity

CCCCn1ccc(Nc2ncc(C(=O)Nc3c(C)ccc(O)c3C)s2)n1; W (10-<100 fold)
Cc1ccc(O)c(C)c1NC(=O)c1cnc(NCc2cccc(O)c2)s1; Y (1000-5000 fold)
Cc1ccc(O)c(C)c1NC(=O)c1cnc(NCc2ccccc2)s1; Y (1000-5000 fold)
Cc1ccc(O)c(C)c1NC(=O)c1cnc(Nc2cccc(N3CCC(N)CC3)n2)s1; W (10-<100 fold)
CCNC(=O)Cn1ccc(Nc2ncc(C(=O)Nc3c(C)ccc(O)c3C)s2)n1; Y (1000-5000 fold)
CCCCCCCNC(=O)Cn1ccc(Nc2ncc(C(=O)Nc3c(C)ccc(O)c3C)s2)n1; X (100-<1000 fold)
Cc1ccc(O)c(C)c1NC(=O)c1cnc(Nc2nncs2)s1; X (100-<1000 fold)

Okay, now this molecule:
Challenge: Which measured PKMYT1 vs. WEE1 selectivity value corresponds to `Cc1ccc(O)c(C)c1NC(=O)c1cnc(Nc2ccn(CC(=O)N3CC[C@H](O)C3)n2)s1` ?
Response given: Y (1000-5000 fold)

----------
Molecular target: Human PKMYT1 (Homo sapiens, UniProt Q99640)
Construct: Human PKMYT1 75-362 was cloned as a TEV cleavable 6xHis fusion; 6xHis (TEV cleavable) (cleaved yes); made in house; host or cells: bacterial cells
Sequence (Q99640 75-362): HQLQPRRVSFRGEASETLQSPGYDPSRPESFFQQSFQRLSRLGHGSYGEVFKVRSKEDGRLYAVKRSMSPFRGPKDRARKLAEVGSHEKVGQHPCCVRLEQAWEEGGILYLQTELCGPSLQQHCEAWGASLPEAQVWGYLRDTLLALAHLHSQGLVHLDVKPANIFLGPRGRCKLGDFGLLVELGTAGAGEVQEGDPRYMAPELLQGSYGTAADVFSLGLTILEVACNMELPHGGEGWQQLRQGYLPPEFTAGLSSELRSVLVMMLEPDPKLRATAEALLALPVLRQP
Experiment: PKMYT1 biochemical ADP-Glo enzymatic assay
Details: ADP-Glo; 15 nM PKMYT1 kinase domain, 500 µM ATP, 60 minutes at 26° C.; banded
Where a name gives a salt, the structure may show the parent alone.
# maps each entry to its IC50

Look over these answered cases.
COc1ccccc1CNc1ncc(C(=O)Nc2c(C)ccc(O)c2C)s1 [BAA-355]; 50 to 1000 nM
CCN(CC)C(=O)Cn1cc(C)c(Nc2ncc(C(=O)Nc3c(C)ccc(O)c3C)s2)n1 [BAA-207]; < 50 nM
CCC(=O)N1CC[C@@H](n2ccc(Nc3ncc(C(=O)Nc4c(C)ccc(O)c4C)s3)n2)C1 [BAA-085]; < 50 nM
Cc1ccc(O)c(C)c1NC(=O)c1cnc(Nc2ccn(CC(=O)N3CCN(C(=O)OC(C)(C)C)CC3)n2)s1 [BAA-140]; < 50 nM
Cc1ccc(O)c(C)c1NC(=O)c1cnc(Nc2ccn([C@H]3CCOC3)n2)s1 [BAA-041]; 50 to 1000 nM

Challenge: Report IC50 for Cc1ccc(O)c(C)c1NC(=O)c1cnc(Nc2ccn(CC(=O)N3CC(F)(F)C3)n2)s1 [BAA-196] tested on Human PKMYT1 (Homo sapiens, UniProt Q99640).
Response given: < 50 nM

Challenge: Form field: IC50 recorded for Cc1ccc(O)c(C)c1NC(=O)c1cnc(NCCc2ccc(C(F)(F)F)cc2)s1 [BAA-075] with Human PKMYT1 (Homo sapiens, UniProt Q99640) (enter value)
Response given: 1000 to 11000 nM

Challenge: Notebook: pull reported IC50 for Human PKMYT1 (Homo sapiens, UniProt Q99640), entry Cc1cn(C2CNC2)nc1Nc1ncc(C(=O)Nc2c(C)ccc(O)c2C)s1 [BAA-273, hydrochloride]
Response given: < 50 nM
